Target: Protein-arginine deiminase type-3 (Homo sapiens) (UniProt Q9ULW8)
Sequence (Q9ULW8 whole entry, looked up): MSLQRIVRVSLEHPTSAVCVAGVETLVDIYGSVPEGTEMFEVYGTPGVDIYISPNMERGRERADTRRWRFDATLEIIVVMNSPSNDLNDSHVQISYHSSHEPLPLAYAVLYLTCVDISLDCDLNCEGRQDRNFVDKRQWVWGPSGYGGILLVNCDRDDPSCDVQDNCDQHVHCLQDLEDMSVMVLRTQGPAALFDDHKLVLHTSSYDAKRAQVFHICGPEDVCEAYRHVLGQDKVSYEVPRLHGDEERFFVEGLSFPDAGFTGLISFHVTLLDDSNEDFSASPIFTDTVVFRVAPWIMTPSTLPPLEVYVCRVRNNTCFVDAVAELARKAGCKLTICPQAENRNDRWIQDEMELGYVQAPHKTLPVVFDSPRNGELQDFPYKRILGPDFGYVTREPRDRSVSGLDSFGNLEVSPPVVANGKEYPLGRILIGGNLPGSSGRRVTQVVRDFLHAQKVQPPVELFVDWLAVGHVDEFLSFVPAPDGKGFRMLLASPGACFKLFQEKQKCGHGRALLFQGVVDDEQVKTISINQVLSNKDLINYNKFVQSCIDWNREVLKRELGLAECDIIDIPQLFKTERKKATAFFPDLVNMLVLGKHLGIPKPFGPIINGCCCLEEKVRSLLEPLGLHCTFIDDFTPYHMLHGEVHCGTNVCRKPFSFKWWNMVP
Experiment: single-point PAD isozyme enzyme inhibition – biochemical, colorimetric, BAEE substrate, HTS hits, selectivity assay for PAD4 inhibitor project, late-stage follow-up (AID 588488)
Settings: Recombinant PAD1-4, BAEE citrulline colorimetric absorbance; PAD3; at 10 µM; hits give high values
OBSERVABLE: inhibition (%)

// known answers, use as guide
[[record]]
molecule = "COC(=O)c1cc(C)nc(Sc2ccccc2N)n1"
test_target = "Protein-arginine deiminase type-3 (Homo sapiens) (UniProt Q9ULW8)"
observed = -14

[[record]]
molecule = "COc1ccc(C2C(C#N)=C(N)N(N(C)C)C3=C2C(=O)CCC3)cc1 (centres undefined)"
test_target = "Protein-arginine deiminase type-3 (Homo sapiens) (UniProt Q9ULW8)"
observed = -1


P = CC(=O)N(Cc1cc(=O)[nH]c2ccccc12)c1cccc(C)c1
Q = Cc1c(C(=O)N2CCCCC2)c(S(=O)(=O)N2CCN(c3ccc(Cl)cc3)CC2)c(C)n1C
R = COc1cccc(/C=C2/CN(C)CC3=C2OC(N)=C(C#N)C3c2cccc(OC)c2)c1 (centres undefined)
Sort these molecules on inhibition so the largest reading comes first. Provide your answer as the labels ordered per the instruction. P, Q, R
(P: -3%, Q: -6%, R: -20%)

###

Biological target: UniProtKB Q9ULC6
Assay: single-point PAD isozyme enzyme inhibition – biochemical, colorimetric, BAEE substrate, HTS hits, selectivity assay for PAD4 inhibitor project, late-stage follow-up (AID 588488)
Settings: Recombinant PAD1-4, BAEE citrulline colorimetric absorbance; PAD1; at 10 µM; hits give high values
OBSERVABLE: inhibition (%)

[[record]]
compound = "Cc1c(NC(=O)CSc2nccn2C)c(=O)n(-c2ccccc2)n1C"
test_target = "UniProtKB Q9ULC6"
observable = "inhibition"
unit_symbol = "%"
observed = 22

[[record]]
compound = "COc1ccc(C2C(C#N)=C(N)N(N(C)C)C3=C2C(=O)CCC3)cc1 (centres undefined)"
test_target = "UniProtKB Q9ULC6"
observable = "inhibition"
unit_symbol = "%"
observed = 9

[[record]]
compound = "O=c1cc(-c2ccc(Cl)cc2)[nH][nH]1"
test_target = "UniProtKB Q9ULC6"
observable = "inhibition"
unit_symbol = "%"
observed = 1

[[record]]
compound = "O=C(NCC1CCCO1)c1cc2c([nH]c3ccccc32)c(-c2ccc(F)cc2)n1 (centres undefined)"
test_target = "UniProtKB Q9ULC6"
observable = "inhibition"
unit_symbol = "%"
observed = 5

[[record]]
compound = "Cc1cc(N(C)NC(=S)Nc2ccccc2)nc(C)n1"
test_target = "UniProtKB Q9ULC6"
observable = "inhibition"
unit_symbol = "%"
observed = 5


I = S=C(NCc1ccco1)Nc1cccc(Cl)c1
II = CN(C)CCCNc1cn[nH]c(=O)c1Cl
III = CN(C)CCN(Cc1ccccc1)c1ccccn1
IV = COc1cccc(NC(=O)C2c3cc(OC)c(OC)cc3C(=O)N(C)C2c2cccnc2)c1 (centres undefined)
Provide the items ranked by increasing inhibition. Provide your answer as the labels ordered per the instruction. III, IV, I, II
(III: -7%, IV: 5%, I: 17%, II: 27%)

###

Molecular target: Protein-arginine deiminase type-4 (Homo sapiens) (UniProt Q9UM07)
Sequence (Q9UM07 whole entry, looked up): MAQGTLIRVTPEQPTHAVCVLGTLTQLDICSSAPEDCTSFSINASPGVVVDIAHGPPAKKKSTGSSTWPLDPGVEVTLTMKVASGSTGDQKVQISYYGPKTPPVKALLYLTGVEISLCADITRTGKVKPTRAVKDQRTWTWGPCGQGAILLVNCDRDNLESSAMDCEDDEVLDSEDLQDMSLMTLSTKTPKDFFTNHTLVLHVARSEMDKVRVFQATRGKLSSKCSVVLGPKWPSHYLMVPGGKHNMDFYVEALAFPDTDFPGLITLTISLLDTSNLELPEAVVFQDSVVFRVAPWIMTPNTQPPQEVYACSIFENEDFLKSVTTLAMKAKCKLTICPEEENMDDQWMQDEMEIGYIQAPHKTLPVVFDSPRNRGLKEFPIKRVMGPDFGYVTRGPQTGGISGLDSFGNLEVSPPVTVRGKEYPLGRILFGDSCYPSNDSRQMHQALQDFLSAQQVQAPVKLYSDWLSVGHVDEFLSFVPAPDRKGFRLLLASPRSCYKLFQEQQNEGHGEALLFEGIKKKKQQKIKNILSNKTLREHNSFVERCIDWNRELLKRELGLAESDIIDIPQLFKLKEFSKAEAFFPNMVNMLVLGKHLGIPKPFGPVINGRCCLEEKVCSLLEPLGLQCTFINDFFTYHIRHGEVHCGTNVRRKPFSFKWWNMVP
Test: single-point PAD isozyme enzyme inhibition – biochemical, colorimetric, BAEE substrate, HTS hits, selectivity assay for PAD4 inhibitor project, late-stage follow-up (AID 588488)
Conditions: Recombinant PAD1-4, BAEE citrulline colorimetric absorbance; PAD4; at 10 µM; hits give high values
OBSERVABLE: inhibition (%)

// known answers, use as guide
[[record]]
compound = "COc1cccc(NC(=O)C2c3cc(OC)c(OC)cc3C(=O)N(C)C2c2cccnc2)c1 (stereo not drawn)"
unit_symbol = "%"
observed = 8

[[record]]
compound = "CC(=O)N(Cc1cc(=O)[nH]c2ccccc12)c1cccc(C)c1"
unit_symbol = "%"
observed = 16

[[record]]
compound = "COc1cccc2cc(C(=O)NC3CC(C)(C)NC(C)(C)C3)c(=O)oc12"
unit_symbol = "%"
observed = 17


P = Cc1nonc1OC(C)CNc1ccc([N+](=O)[O-])cc1 (stereo not drawn)
Q = COC(=O)c1cc(C)nc(Sc2ccccc2N)n1
R = O=C(NCC1CCCO1)c1cc2c([nH]c3ccccc32)c(-c2ccc(F)cc2)n1 (stereo not drawn)
S = Cc1oc2c(C)c(O)ccc2c(=O)c1-c1ccc2ccccc2n1
Provide the items ranked by increasing inhibition. Provide your answer as the labels ordered per the instruction. R, Q, P, S
(R: -3%, Q: 6%, P: 12%, S: 18%)

###

Target: Protein-arginine deiminase type-3 (Homo sapiens) (UniProt Q9ULW8)
Assay: single-point PAD isozyme enzyme inhibition – biochemical, colorimetric, BAEE substrate, HTS hits, selectivity assay for PAD4 inhibitor project, late-stage follow-up (AID 588488)
Conditions: Recombinant PAD1-4, BAEE citrulline colorimetric absorbance; PAD3; at 10 µM; hits give high values
OBSERVABLE: inhibition (%)

1 = COc1ccc(S(=O)(=O)Nc2ccccc2C)cc1
2 = CN(C)CCCNc1cn[nH]c(=O)c1Cl
3 = Cc1c(NC(=O)CSc2nccn2C)c(=O)n(-c2ccccc2)n1C
4 = Cc1cc(N(C)NC(=S)Nc2ccccc2)nc(C)n1
5 = CN(C)CCN(Cc1ccccc1)c1ccccn1
hey, can you rank those molecules up there by inhibition? biggest number first please Provide your answer as the labels ordered per the instruction. 2, 1, 4, 5, 3
(2: 2%, 1: -3%, 4: -6%, 5: -9%, 3: -18%)

I = COc1cccc(NC(=O)CN(C)C(=O)C23CC4CC(CC(Cl)(C4)C2)C3)c1
II = Cc1oc2c(C)c(O)ccc2c(=O)c1-c1ccc2ccccc2n1
III = Cc1cc(-c2nnc(SCC(=O)Nc3ccc(F)c(F)c3)n2N)n[nH]1
IV = CCN(CC)S(=O)(=O)c1ccc(N=NC2=C(O)CCCC2=O)cc1
Sort these molecules on inhibition so the largest reading comes first. Provide your answer as the labels ordered per the instruction. IV, I, III, II

###

Target: Protein-arginine deiminase type-1 (Homo sapiens) (UniProt Q9ULC6)
Sequence (Q9ULC6 whole entry, looked up): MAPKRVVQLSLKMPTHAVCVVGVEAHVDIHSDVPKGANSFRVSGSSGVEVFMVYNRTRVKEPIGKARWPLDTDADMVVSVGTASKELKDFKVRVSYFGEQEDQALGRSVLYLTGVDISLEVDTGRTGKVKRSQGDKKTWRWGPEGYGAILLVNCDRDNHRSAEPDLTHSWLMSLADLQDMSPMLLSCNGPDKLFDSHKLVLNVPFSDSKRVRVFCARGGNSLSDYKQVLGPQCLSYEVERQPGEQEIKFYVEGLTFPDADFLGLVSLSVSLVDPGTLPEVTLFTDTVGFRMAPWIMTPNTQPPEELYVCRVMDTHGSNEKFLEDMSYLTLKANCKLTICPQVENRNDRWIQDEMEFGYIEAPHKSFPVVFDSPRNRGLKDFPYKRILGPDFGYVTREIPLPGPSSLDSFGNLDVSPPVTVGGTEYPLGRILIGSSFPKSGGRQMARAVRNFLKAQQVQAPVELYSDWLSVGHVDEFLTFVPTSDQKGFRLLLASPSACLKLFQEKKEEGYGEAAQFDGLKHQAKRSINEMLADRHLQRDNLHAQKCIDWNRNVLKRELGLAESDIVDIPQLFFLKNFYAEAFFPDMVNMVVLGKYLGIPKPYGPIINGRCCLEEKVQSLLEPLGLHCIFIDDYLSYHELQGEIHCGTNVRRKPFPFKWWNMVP
Assay: single-point PAD isozyme enzyme inhibition – biochemical, colorimetric, BAEE substrate, HTS hits, selectivity assay for PAD4 inhibitor project, late-stage follow-up (AID 588488)
Details: Recombinant PAD1-4, BAEE citrulline colorimetric absorbance; PAD1; at 10 µM; hits give high values
OBSERVABLE: inhibition (%)

// known answers, use as guide
[[record]]
compound = "Cc1nn(-c2cccc(Cl)c2)c2c1C(c1cccnc1)C(C#N)=C(N)O2 (stereo not given)"
observable = "inhibition"
observed = -3

[[record]]
compound = "Cc1oc2c(C)c(O)ccc2c(=O)c1-c1ccc2ccccc2n1"
observable = "inhibition"
observed = 17

[[record]]
compound = "CC(=O)N(Cc1cc(=O)[nH]c2ccccc12)c1cccc(C)c1"
observable = "inhibition"
observed = 4


a = N#CCCn1[nH]c(-c2ccccc2)cc1=O
b = N#CCCN(C(=O)Cn1nc(C(=O)O)c2ccccc2c1=O)c1ccccc1
// max by inhibition over [ a , b ] Please reply using the label of the selected record. b
(b: 13%, a: 3%)
